Let's look at some molecules and their measured MIC.
System: Staphylococcus aureus
Assay: Antibacterial activity against Staphylococcus aureus ATCC 25923 assessed as inhibition of bacterial growth after 24 hrs by microbroth dilution method
Type: functional
Form entry: value (µg/mL) — number only.

Please review the following examples before continuing.
O=C1c2cccc(O)c2C(=O)c2c(O)cc(Cn3cnc4cc([N+](=O)[O-])ccc43)cc21 : 64
O=C1c2cccc(O)c2C(=O)c2c(O)cc(Cn3cncn3)cc21 : 16

Please find the next molecule below.
Observed MIC on Staphylococcus aureus for O=C1c2cccc(O)c2C(=O)c2c(O)cc(CCl)cc21 , please. 64

====

Experiment: Cytotoxicity against human HepG2 cells assessed as cell viability at 12 uM after 72 hrs by CCK8 assay
Assay type: cell-based
Settings: read-out: Activity
endpoint: viability at 72 h, 12 µM

I would be grateful if you could share the reported viability at 72 h, 12 µM for O=C1c2cccc(O)c2C(=O)c2c(O)cc(Cn3cnnn3)cc21 . > 50%

====

Test system: Escherichia coli
Assay: Antibacterial activity against Escherichia coli ATCC 25922 assessed as inhibition of bacterial growth after 24 hrs by microbroth dilution method
Format: functional
Let's look at some molecules and their measured MIC.
Express the reported value numerically, then name its unit.

O=C1c2cccc(O)c2C(=O)c2c(O)cc(Cn3c4ccccc4c4ccccc43)cc21 : 64 µg/mL
O=C1c2cccc(O)c2C(=O)c2c(O)cc(Cn3cnc4cc([N+](=O)[O-])ccc43)cc21 : 32 µg/mL
O=C1c2cccc(O)c2C(=O)c2c(O)cc(Cn3cnc([N+](=O)[O-])c3)cc21 : 32 µg/mL
Cc1ccc2c(c1)ncn2Cc1cc(O)c2c(c1)C(=O)c1cccc(O)c1C2=O : 32 µg/mL

Please find the next molecule below.
Observed MIC on Escherichia coli for O=C1c2cccc(O)c2C(=O)c2c(O)cc(Cn3nnc4ccccc43)cc21 , please. 32 µg/mL

====

System: Staphylococcus aureus
Assay: Antibacterial activity against Staphylococcus aureus ATCC 25923 assessed as inhibition of bacterial growth after 24 hrs by microbroth dilution method
Format: functional
endpoint: MIC (µg/mL)
Form entry: value (µg/mL) — number only.

Please review the following examples before continuing.
CCn1cc(C(=O)O)c(=O)c2cc(F)c(N3CCNCC3)cc21 : 1
Cc1ncc([N+](=O)[O-])n1Cc1cc(O)c2c(c1)C(=O)c1cccc(O)c1C2=O : 16
O=C1c2cccc(O)c2C(=O)c2c(O)cc(Cn3ccnc3[N+](=O)[O-])cc21 : 32
O=C1c2cccc(O)c2C(=O)c2c(O)cc(Cn3cnc([N+](=O)[O-])c3)cc21 : 16

I would be grateful if you could share the reported MIC for O=C1c2cccc(O)c2C(=O)c2c(O)cc(CSc3nc4ccccc4[nH]3)cc21 . 128

====

Let's look at some compounds and their measured log10(MIC).
System: Staphylococcus aureus
Test: Antibacterial activity against Staphylococcus aureus ATCC 25923 assessed as inhibition of bacterial growth after 24 hrs by microbroth dilution method
Type: functional
The common logarithm of MIC in µg/mL is what is listed.

Please review the following examples before continuing.
O=C1c2cccc(O)c2C(=O)c2c(O)cc(Cn3nnc4ccccc43)cc21 : 2.41
O=C1c2cccc(O)c2C(=O)c2c(O)cc(Cn3cnc4ccccc43)cc21 : 0.90
Cn1nnnc1SCc1cc(O)c2c(c1)C(=O)c1cccc(O)c1C2=O : 1.20
O=C1c2cccc(O)c2C(=O)c2c(O)cc(Cn3c4ccccc4c4ccccc43)cc21 : 1.20

I would be grateful if you could share the reported log10(MIC) for Cn1ccnc1SCc1cc(O)c2c(c1)C(=O)c1cccc(O)c1C2=O . 2.41

I would be grateful if you could share the reported log10(MIC) for O=C1c2cccc(O)c2C(=O)c2c(O)cc(CSc3nnc[nH]3)cc21 . 1.20

I would be grateful if you could share the reported log10(MIC) for O=C1c2cccc(O)c2C(=O)c2c(O)cc(Cn3cnnn3)cc21 . 1.81

I would be grateful if you could share the reported log10(MIC) for CCc1nc2ccccc2n1Cc1cc(O)c2c(c1)C(=O)c1cccc(O)c1C2=O . 2.11

I would be grateful if you could share the reported log10(MIC) for Cc1nnnn1Cc1cc(O)c2c(c1)C(=O)c1cccc(O)c1C2=O . 1.81

I would be grateful if you could share the reported log10(MIC) for Cc1ccc2c(c1)ncn2Cc1cc(O)c2c(c1)C(=O)c1cccc(O)c1C2=O . 1.51

====

Let's look at some compounds and their measured MIC.
Test system: Escherichia coli
Experiment: Antibacterial activity against Escherichia coli ATCC 25922 assessed as inhibition of bacterial growth after 24 hrs by microbroth dilution method
Type: functional
Express the reported value numerically, then name its unit.

CCn1cc(C(=O)O)c(=O)c2cc(F)c(N3CCNCC3)cc21 [NORFLOXACIN] : 8 µg/mL

Observed MIC on Escherichia coli for O=C1c2cccc(O)c2C(=O)c2c(O)cc(CCl)cc21 , please. 32 µg/mL

Observed MIC on Escherichia coli for Cn1nnnc1SCc1cc(O)c2c(c1)C(=O)c1cccc(O)c1C2=O , please. 64 µg/mL

Observed MIC on Escherichia coli for Cc1ncc([N+](=O)[O-])n1Cc1cc(O)c2c(c1)C(=O)c1cccc(O)c1C2=O , please. 64 µg/mL

Observed MIC on Escherichia coli for O=C1c2cccc(O)c2C(=O)c2c(O)cc(CSc3nnc[nH]3)cc21 , please. 64 µg/mL

Values from ChEMBL document CHEMBL4732030
